- test: blockers of an Epstein-Barr virus protein-peptide interaction – biochemical, fluorescence polarization, dose response (AID 1419)
- condition_label: cell-free protein-peptide binding, 2 h
Active and inactive are the calls of the source. The rule behind the calls is not given here.
Write down one outcome, taken from active, inactive

Input line: Look up the recorded call for Cc1ncc([N+](=O)[O-])n1Cc1cccc2ccccc12 in this test.
Output line: inactive

Input line: Look up the recorded call for COc1cc(C2C(C#N)=C(N)OC3=C2C(=O)CC(C)(C)C3)c([N+](=O)[O-])cc1OC (stereo not given) in this test.
Output line: active

Input line: Look up the recorded call for O=C(/C(=C(\[O-])c1ccccc1)[n+]1ccc2ccccc2c1)c1ccc(Cl)cc1 in this test.
Output line: active

Input line: Look up the recorded call for Cc1ccc(N=Nc2[nH]c3ccccc3c2O)cc1 in this test.
Output line: active

Input line: Look up the recorded call for CCOC(=O)[C@]1(C#N)[C@@H]2C=CC(C(C)=O)=CN2[C@@H](C(N)=O)[C@@H]1c1ccsc1 in this test.
Output line: active

Input line: Look up the recorded call for CCn1c(SCc2ccc(C(=O)Nc3nccs3)cc2)nnc1-c1ccc(N)cc1 in this test.
Output line: inactive

Input line: Look up the recorded call for CCN(CC)C(=O)CSc1nnc2nnc3cc(OC)ccc3n12 in this test.
Output line: active

Input line: Look up the recorded call for Cc1ccc(CNC(=O)c2ccc(-n3cccc3)cc2)cc1 in this test.
Output line: inactive

Input line: Look up the recorded call for COc1ccc(C2C(C(=O)c3cccs3)=C(O)C(=O)N2c2nncs2)cc1 (stereo not given) in this test.
Output line: active

Input line: Look up the recorded call for COc1nc(N/N=C/c2ccc(-c3cccc([N+](=O)[O-])c3)o2)nc(N2CCOCC2)n1 in this test.
Output line: active

* * *

- test: blockers of an Epstein-Barr virus protein-peptide interaction – biochemical, fluorescence polarization, dose response (AID 1419)
- condition_label: cell-free protein-peptide binding, 2 h
Activity calls are given as the source filed them. How the calls were made is not given here.
Write down one outcome, taken from Y = active, N = inactive

[
  {
    "molecule": "O=C1CSC(=S)N1/N=C/c1ccc(O)c(O)c1O",
    "classification": "Y"
  },
  {
    "molecule": "COc1ccc(OC)c(/C=c2\\sc3nc(-c4cccs4)nn3c2=O)c1",
    "classification": "Y"
  },
  {
    "molecule": "CCCn1c(O)c(N=Nc2ccc3ccccc3n2)c2ccccc21",
    "classification": "N"
  },
  {
    "molecule": "Cc1nnc(NC(=O)COc2ccc3c(C)cc(=O)oc3c2)s1",
    "classification": "N"
  },
  {
    "molecule": "CCSc1nnc(-c2sc3nnc(-c4ccccc4)c(-c4ccccc4)c3c2N)o1",
    "classification": "Y"
  },
  {
    "molecule": "CCOc1cc(C=C2C(=O)c3ccccc3C2=O)ccc1OCC(=O)Nc1ccc(C)cc1",
    "classification": "Y"
  }
]

Next item in the queue.
Input line: Look up the recorded call for Cc1ccc(N2C(=O)c3cccc4c(N5CCN(C)CC5)ccc(c34)C2=O)c2cccnc12 in this test.
Output line: Y

* * *

- test: blockers of an Epstein-Barr virus protein-peptide interaction – biochemical, fluorescence polarization, dose response (AID 1419)
- condition_label: cell-free protein-peptide binding, 2 h
Calls of active or inactive are those of the source. No rule for the calls is given here.
Write down one outcome, taken from active, inactive

Reference set, count: 5
[
  {
    "compound": "Cn1c(=O)c(N)c2c3c(c(Br)ccc31)C(=O)c1ccccc1-2",
    "classification": "active"
  },
  {
    "compound": "Cc1ccc2cc(C=C(C#N)C#N)c(N3CCCCC3)nc2c1",
    "classification": "active"
  },
  {
    "compound": "COc1ccc2nc(N3C(=O)/C(=C/c4ccc(Cl)cc4)NC3=S)sc2c1",
    "classification": "inactive"
  },
  {
    "compound": "CCN(c1ccc(N=Cc2c(O)n(Cc3ccc(OC)cc3)c(=O)c3ccccc23)cc1)C(C)C",
    "classification": "active"
  },
  {
    "compound": "CCOC(=O)C1C(=O)C=C(/C=C/c2ccc(N(C)C)cc2)CC1c1ccccc1 (centres undefined)",
    "classification": "inactive"
  }
]

Input line: Look up the recorded call for Cc1cc(=O)oc2cc(OCC(=O)N/N=C/c3cc([N+](=O)[O-])ccc3O)ccc12 in this test.
Output line: active

Input line: Look up the recorded call for Cc1ccc(/C=C/C(=O)OCc2nc(N)nc(Nc3ccccc3C)n2)o1 in this test.
Output line: inactive

* * *

- test: blockers of an Epstein-Barr virus protein-peptide interaction – biochemical, fluorescence polarization, dose response (AID 1419)
- condition_label: cell-free protein-peptide binding, 2 h
Calls of active or inactive are those of the source. The rule behind the calls is not given here.
Write down one outcome, taken from active, inactive

Reference set, count: 2
[
  {
    "compound_structure_string": "O=c1oc2cc(O)ccc2cc1-c1nc2c(s1)CCc1ccccc1-2",
    "classification": "active"
  },
  {
    "compound_structure_string": "Cn1cc(Cl)c(C(=O)Nc2nc3ccc([N+](=O)[O-])cc3s2)n1",
    "classification": "inactive"
  }
]

Next item in the queue.
Input line: Look up the recorded call for Cc1ccccc1-n1c(SCc2c(C)noc2C)nnc1-c1cccnc1 in this test.
Output line: active

* * *

- test: blockers of an Epstein-Barr virus protein-peptide interaction – biochemical, fluorescence polarization, dose response (AID 1419)
- condition_label: cell-free protein-peptide binding, 2 h
Activity calls are given as the source filed them. The rule behind the calls is not given here.
Write down one outcome, taken from label 1 = active, label 0 = inactive

Reference set, count: 3
[
  {
    "compound_structure_string": "O=C(O)CSc1cc(C(=O)c2ccccc2O)cn2c(=O)c3c4c(sc3nc12)CCCC4",
    "classification": "label 0"
  },
  {
    "compound_structure_string": "CC(=O)N/N=C/c1cc(C(C)(C)C)cc(/C=N/NC(C)=O)c1O",
    "classification": "label 1"
  },
  {
    "compound_structure_string": "CCOc1cc(Br)c(Br)c(C=Nc2ccc(NC(C)=O)cc2)c1O",
    "classification": "label 1"
  }
]

Next item in the queue.
Input line: Look up the recorded call for Cc1cc(=O)oc(C)c1C(=O)Nc1ccc2ncccc2c1 in this test.
Output line: label 1

* * *

- test: blockers of an Epstein-Barr virus protein-peptide interaction – biochemical, fluorescence polarization, dose response (AID 1419)
- condition_label: cell-free protein-peptide binding, 2 h
The source made the active and inactive calls. How the calls were made is not given here.
Write down one outcome, taken from active, inactive

[
  {
    "compound": "Cc1ccc(C(NC(=O)C2CCCCC2)c2c(O)ccc3ccccc23)cc1 (stereo unspecified)",
    "classification": "inactive"
  },
  {
    "compound": "Nc1ccc(-c2nc3ccc(C(=O)O)cc3s2)cc1",
    "classification": "inactive"
  },
  {
    "compound": "Cn1c(O)c(C=Nc2ccc(N3CCOCC3)cc2)c(=O)n(C)c1=S",
    "classification": "active"
  },
  {
    "compound": "Cc1c(N=C2N=C(NC(=O)c3cccs3)c3ccccc32)c(=O)n(-c2ccccc2)n1C",
    "classification": "active"
  }
]

Input line: Look up the recorded call for COc1ccccc1NC(=O)/C(C#N)=C/c1cc([N+](=O)[O-])ccc1N1CCCC1 in this test.
Output line: active

Input line: Look up the recorded call for CCN1C(=O)/C(=C/C2=Cc3ccccc3OC2C)SC1=S (stereo unspecified) in this test.
Output line: active

* * *

- test: blockers of an Epstein-Barr virus protein-peptide interaction – biochemical, fluorescence polarization, dose response (AID 1419)
- condition_label: cell-free protein-peptide binding, 2 h
Activity calls are given as the source filed them. How the calls were made is not given here.
Write down one outcome, taken from active, inactive

[
  {
    "compound": "O=C(C1=NN(c2ccccc2)C2C(=O)N(c3ccccc3Cl)C(=O)C12)c1ccccc1 (stereo not given)",
    "classification": "active"
  },
  {
    "compound": "Nn1c(Cc2ccccc2F)nnc1SCC(=O)N1CC(=O)Nc2ccccc21",
    "classification": "inactive"
  },
  {
    "compound": "N#C/C(=C\\C1=C(N2CCOCC2)C(=C\\c2ccc(Cl)cc2)/CC1)C(=O)Nc1ccccc1F",
    "classification": "active"
  },
  {
    "compound": "Nc1cccc(C(=O)OCC(=O)Nc2cccc3c2C(=O)c2ccccc2C3=O)c1",
    "classification": "active"
  }
]

Input line: Look up the recorded call for CCCC(=O)NC(Oc1ccc(C(C)=O)cc1)C(Cl)(Cl)Cl (stereo not given) in this test.
Output line: inactive

Input line: Look up the recorded call for CCOC(=O)c1c(/N=C/c2c(O)n(-c3ccccc3F)c(=S)[nH]c2=O)sc2c1CCCC2 in this test.
Output line: active

Input line: Look up the recorded call for CC(C)OC(=O)CC(=O)c1sc2nc3c(cc2c1N)CN(C)CC3 in this test.
Output line: inactive
